TEST READOUT: intrinsic clearance, rat liver microsomes (mL/min/kg)

CN1C(=O)N(CC(=O)NCc2ccc(Cl)cc2)C(=O)C12CCCCC2 :: 2110
Cc1nc2cc(NC(=O)CCc3c(C)noc3C)ccc2o1 :: 78.5
C#CCNC(=O)c1cc(C(C)C)nn1CC :: 12.4
Cn1cc(NC(=O)c2ccc(OCC3CCOCC3)nc2)cn1 :: 41.2
COc1ccc(CCCNc2nnc(C)o2)cc1 :: 151
COc1ccnc(N2CC(n3nc(C)cc3C)C2)n1 :: 44.2
Fc1ccc(-c2ccc3c(c2)[nH]c2ccncc23)cn1 :: 162
Cc1sc2ncn(Cc3c(F)cccc3Cl)c(=O)c2c1C :: 757
CCCn1ncc2[nH]c(-c3cc(Cn4cncn4)c(C)cc3C)nc21 :: 199
CN1CCN(CCOc2ccccc2N)CC1 :: 130
Cc1ccc2c(c1)cc(CNCCc1ccccc1)c1nnnn12 :: 1770
CC(C)(O)CNc1ncc(-c2ccnc(Nc3ccnc(Cl)c3)n2)c(CC2CC2)n1 :: 149
Cc1cc(C)c2[nH]c(C(=O)N3CC[C@@](O)(CC(C)C)[C@@H](Oc4ccc(F)cc4)C3)c(C)c2c1 :: 1910
CCN(CC)Cc1ccc2cc(COC(=O)Nc3ccc(C(=O)NO)cc3)ccc2c1 :: 227
COc1ccc(C(=O)c2ccc(C)cc2)c(OC)c1 :: 3010
O=c1[nH]nc(CCCN2CCOCC2)n1-c1cccc(Cl)c1 :: 28.1
COc1ncccc1NC(=O)c1cccc(C)n1 :: 184
O=C(Nc1ccc(N2CCOCC2)nc1)N1CCc2sccc2C1 :: 109
CCSCCC(=O)NCCn1nc(C)c(CC)c1C :: 1540
CCc1nc2ccc(C(=O)NCc3ccccc3)cc2nc1CC :: 943
COc1ccccc1CC(=O)Nc1ncc(C)s1 :: 261
Nc1nc(-c2ccccc2)nc2nc(C3CCCN(CC(=O)N4CCCC4)C3)ccc12 (stereo not given) :: 186
COc1ccc(-c2ccc(CNc3ccc(CN4CCC(C)CC4)cc3)cc2)cc1 :: 32.9
O=C(Nc1cccc2cnccc12)c1cccc(F)c1 :: 132
N#Cc1cccc(NCc2ccc(-c3cccnc3)o2)c1 :: 416
Cc1ccc(NC(=O)OCC(F)(F)F)cn1 :: 35.2
Cc1ccc(OCc2nc3cc(N)ccc3[nH]2)cc1 :: 49.1
O=C(NCC1(c2ccc(F)cc2)CCOCC1)c1ccccn1 :: 449
CC(C)Cc1n[nH]c(-c2ccc(N3CCN(C)CC3)cc2)n1 :: 236
CCn1cnnc1CN(C)C1CCN(c2ccccc2F)CC1 :: 340
CCCn1ncnc1-c1ccccc1SC :: 765
Nc1nc2ccccc2nc1N1CCCC1 :: 337
CN(c1ncnc2c1cnn2CCO)C1CCCCC1 :: 77.5
CC(=O)N1CCN(c2ncc(-c3cc(C)no3)c([C@H]3CCCO3)n2)CC1 :: 22.9
Cc1nnc(NCc2cccnc2)c2ccccc12 :: 51.4
CCc1nnc(Nc2cccc(C3CCCN(CC(=O)N4CCCC4)C3)n2)s1 (stereo not given) :: 186
COC(=O)c1cccc2c1CCCN2C(=O)c1ccc(F)cc1F :: 2000
CN1CCNc2nc3ccccc3nc21 :: 143
CNC(=O)[C@H]1O[C@@H](n2cnc3c(NCc4cccc(I)c4)ncnc32)[C@H](O)[C@@H]1O :: 3690
COc1ccccc1C(=O)Nc1cccc(-c2ccnc(C)n2)c1 :: 167
